target: Coagulation factor XI (Homo sapiens)
Sequence (P03951 19-387 limits assumed): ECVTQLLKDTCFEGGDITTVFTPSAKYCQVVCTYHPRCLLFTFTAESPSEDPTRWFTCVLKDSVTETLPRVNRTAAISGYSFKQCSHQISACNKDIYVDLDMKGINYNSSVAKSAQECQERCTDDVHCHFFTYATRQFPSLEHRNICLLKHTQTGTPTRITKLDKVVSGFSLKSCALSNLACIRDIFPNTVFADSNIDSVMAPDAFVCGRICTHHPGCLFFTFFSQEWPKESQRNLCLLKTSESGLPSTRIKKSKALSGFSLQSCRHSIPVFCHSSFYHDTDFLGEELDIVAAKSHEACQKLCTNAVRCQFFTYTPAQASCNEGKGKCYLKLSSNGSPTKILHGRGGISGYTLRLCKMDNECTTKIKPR
Sequence (P03951 388-625 limits assumed): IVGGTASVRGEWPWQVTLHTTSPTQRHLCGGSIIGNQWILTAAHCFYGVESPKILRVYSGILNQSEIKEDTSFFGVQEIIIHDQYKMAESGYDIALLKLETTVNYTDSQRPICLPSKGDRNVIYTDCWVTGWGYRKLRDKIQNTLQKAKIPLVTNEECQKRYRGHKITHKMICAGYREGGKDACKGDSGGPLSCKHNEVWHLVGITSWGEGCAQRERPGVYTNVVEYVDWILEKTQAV

sampleSmiles: CN(C)Cc1nccn1-c1ccc(NC(=O)c2cc(C(F)(F)F)nn2-c2ccc3onc(N)c3c2)c(F)c1
Ki: > 12 µM

###

biological target: Plasma kallikrein (Homo sapiens); experiment: Inhibition of human plasma kallikrein
Sequence (P03952 20-390 limits assumed): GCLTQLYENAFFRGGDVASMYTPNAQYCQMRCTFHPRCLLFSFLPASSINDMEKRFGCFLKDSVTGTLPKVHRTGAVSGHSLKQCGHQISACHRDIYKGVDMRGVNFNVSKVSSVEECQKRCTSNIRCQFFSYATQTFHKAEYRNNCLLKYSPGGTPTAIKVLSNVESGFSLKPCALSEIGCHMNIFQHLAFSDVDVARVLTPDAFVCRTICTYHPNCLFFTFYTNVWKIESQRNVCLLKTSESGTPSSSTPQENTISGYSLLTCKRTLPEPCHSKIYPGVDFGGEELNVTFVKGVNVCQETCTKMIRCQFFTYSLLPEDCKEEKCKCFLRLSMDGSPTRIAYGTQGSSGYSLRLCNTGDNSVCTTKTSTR
Sequence (P03952 391-638 limits assumed): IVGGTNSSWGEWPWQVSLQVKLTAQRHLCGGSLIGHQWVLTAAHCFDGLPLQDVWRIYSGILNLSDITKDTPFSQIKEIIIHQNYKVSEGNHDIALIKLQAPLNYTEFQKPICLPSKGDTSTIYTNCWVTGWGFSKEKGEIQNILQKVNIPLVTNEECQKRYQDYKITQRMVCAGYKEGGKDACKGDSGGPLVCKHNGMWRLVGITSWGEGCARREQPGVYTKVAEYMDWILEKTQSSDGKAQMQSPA
pKi: −log10 of the molar value.

sampleSmiles: COc1ccc(-n2nc(C(N)=O)cc2C(=O)Cc2ccc(-n3ccccc3=O)cc2F)cc1
pKi: 5.05

###

molecules and their reported Ki
target: Trypsin (Homo sapiens, UniProt P07477+P07478+P35030); experiment: Inhibition of human trypsin; format: protein assay

molecule: CC(C(=O)c1cc(C(F)(F)F)nn1-c1ccc2onc(N)c2c1)c1ccc(-c2ccccc2S(C)(=O)=O)cc1 (racemic)
measuredOn: Trypsin (Homo sapiens, UniProt P07477+P07478+P35030)
Ki: > 20 µM
//
molecule: COc1ccc(-n2nc(C(F)(F)F)cc2C(=O)Cc2ccc(N3CCCCC3=O)cc2)cc1
measuredOn: Trypsin (Homo sapiens, UniProt P07477+P07478+P35030)
Ki: > 15 µM
//
molecule: Nc1noc2ccc(-n3nc(C(F)(F)F)c4c3C(=O)N(c3ccc(-c5ccccc5CN5CC[C@@H](O)C5)cc3)CC4)cc12
measuredOn: Trypsin (Homo sapiens, UniProt P07477+P07478+P35030)
Ki: > 2.8 µM
//
molecule: Nc1noc2ccc(-n3nc(C(F)(F)F)cc3C(=O)Cc3ccc(-c4ccccc4S(N)(=O)=O)cc3)cc12
measuredOn: Trypsin (Homo sapiens, UniProt P07477+P07478+P35030)
Ki: > 20 µM
//
molecule: COc1ccc(-n2nc(C(F)(F)F)cc2C(=O)Cc2ccc(-n3ccccc3=O)cc2F)cc1
measuredOn: Trypsin (Homo sapiens, UniProt P07477+P07478+P35030)
Ki: > 15 µM
//
molecule: COc1ccc(-n2nc(C(F)(F)F)cc2C(=O)Cc2ccc(-c3ccccc3S(N)(=O)=O)cc2F)cc1
measuredOn: Trypsin (Homo sapiens, UniProt P07477+P07478+P35030)
Ki: > 6 µM
//
molecule: CC(C(=O)c1cc(C(F)(F)F)nn1-c1ccc2onc(N)c2c1)c1ccc(-c2ccccc2S(N)(=O)=O)cc1 (racemic)
measuredOn: Trypsin (Homo sapiens, UniProt P07477+P07478+P35030)
Ki: > 20 µM
//
molecule: CN(C)Cc1ccccc1-c1ccc(CC(=O)c2cc(C(F)(F)F)nn2-c2ccc3onc(N)c3c2)c(F)c1
measuredOn: Trypsin (Homo sapiens, UniProt P07477+P07478+P35030)
Ki: > 4.2 µM

###

experiment: Half life in dog at 0.2 mg/kg, po; type: ADME, organism-based, Canis lupus familiaris; design: dose 0.2 mg/kg, route oral; settings: in vivo
experimentalEndpoint: half-life (min)

sampleSmiles: COc1ccc(-n2nc(C(N)=O)cc2C(=O)Cc2ccc(-n3ccccc3=O)cc2F)cc1
number: 324

###

biological target: Trypsin (Homo sapiens, UniProt P07477+P07478+P35030); test: Inhibition of human trypsin; assay type: protein assay

sampleSmiles: CS(=O)(=O)c1ccccc1-c1ccc(CC(=O)c2cc(C(F)(F)F)nn2-c2ccc3onc(N)c3c2)c(F)c1
Ki: > 20 µM
--
sampleSmiles: Nc1noc2ccc(-n3nc(C(F)(F)F)cc3C(=O)Cc3ccc(N4CCCCC4=O)cc3)cc12
Ki: > 20 µM
--
sampleSmiles: CS(=O)(=O)c1ccccc1-c1ccc(CC(=O)c2cc(C(F)(F)F)nn2-c2ccc3onc(N)c3c2)cc1
Ki: > 20 µM
--
sampleSmiles: COc1ccc(-n2nc(C(N)=O)cc2C(=O)Cc2ccc(-n3ccccc3=O)cc2F)cc1
Ki: > 15 µM
